testName: Cesium distribution ratio (DCs), equilibrium batch contact of mixed extractant solvent with nitric acid feed
Type: physicochemical
details: second strip with 0.01 M HNO3, 35 °C; 0.007 M calixarene solvent
Cesium distribution ratio, contact St2 values for the molecules below.
Answer field: number only, no words.

molecule	numericResult
CCCCCCCCCCOc1c2cccc1Cc1cccc3c1OCCOCCOc1ccccc1OCCOCCOc1c(cccc1Cc1cccc(c1OCCCCCCCCCC)C3)C2 [MC-10]	0.2
CC(C)CCCC(C)CCOc1c2cccc1Cc1cccc3c1OCCOCCOc1ccccc1OCCOCCOc1c(cccc1Cc1cccc(c1OCCC(C)CCCC(C)C)C3)C2 (stereo not drawn) [MC-10B]	0.2

Query block: Please give measured Cesium distribution ratio, contact St2 of the following entry: CCCCCCCCCCCCOc1c2cccc1Cc1cccc3c1OCCOCCOc1ccccc1OCCOCCOc1c(cccc1Cc1cccc(c1OCCCCCCCCCCCC)C3)C2 [MC-12]
Result block: 0.2
